Each entry below carries its recorded IC50.
# tested_target: Recombinant human HSD17B13 (Homo sapiens (Human))
# Sequence (Q7Z5P4 20-300): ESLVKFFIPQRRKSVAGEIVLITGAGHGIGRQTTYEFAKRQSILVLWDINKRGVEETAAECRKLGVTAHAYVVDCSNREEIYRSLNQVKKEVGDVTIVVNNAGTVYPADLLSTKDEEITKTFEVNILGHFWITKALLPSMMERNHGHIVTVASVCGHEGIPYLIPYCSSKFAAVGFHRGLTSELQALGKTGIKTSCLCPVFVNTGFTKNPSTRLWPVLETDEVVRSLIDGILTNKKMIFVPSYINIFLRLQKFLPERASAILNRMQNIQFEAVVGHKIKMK
# protocol_summary: HSD17B13 rapid-fire mass spectrometry assay (RF/MS assay)
# condition_context: inhibition of HSD17B13; LTB4 10 μM, NAD+ 0.5 mM, RT 3 h; IC50 ranges A-E
# Description: HSD17B13 rapid-fire mass spectrometry assay (RF/MS assay). Recombinant human HSD17B13 was expressed and purified from sf9 cells at Charles River Labs (Saffron Walden, UK). […] Leukotriene B4 (335.3) and 12-oxoLeukotriene B4 (333.3) SRM transitions were optimized with Discovery Quant software and extracted ion counts for these analytes were determined. […] By using above method, the inhibition of HSD17B13 was evaluated for the compounds of Formula (I). […]

Example cases with answers are listed next.
>>> print(df.to_string())
                                   compound  readout_type           observed
0  COc1cc(C(=O)O)ccc1NS(=O)(=O)c1cncc(-c2ccc(C3CCCCC3)cc2)c1          IC50     500 to 1000 nM
1  COc1cc2c(cc1C(=O)O)CN(S(=O)(=O)c1ccc(F)cc1)CC2          IC50        > 100000 nM
2  COc1cc(C(=O)O)ccc1NS(=O)(=O)c1csc(N2CCCC(c3ccc(F)cc3)C2)n1 (stereo not drawn)          IC50  1000 to 100000 nM
3  COc1ccc(-c2cccc(-c3ccc(S(=O)(=O)Nc4ccc(C(=O)O)cc4OC)s3)c2)cc1          IC50      100 to 500 nM
4  COc1cc(C(=O)O)c(F)cc1NS(=O)(=O)c1csc(-c2ccc(-c3ccc(-c4ccc(C(F)(C(F)(F)F)C(F)(F)F)cc4)cc3C(F)(F)F)cc2C(F)(F)F)n1          IC50      100 to 500 nM
5  COc1cc(C(=O)O)ccc1NS(=O)(=O)c1cccc(-c2ccc([C@H]3CC[C@@H](C(C)(C)C)CC3)cc2)c1F          IC50      100 to 500 nM
6  COc1cc(C(=O)O)c(F)cc1NS(=O)(=O)c1csc(-c2ccc(C3=CCC(C(C)(C)C)CC3)cc2C(F)(F)F)n1 (stereo not drawn)          IC50           < 100 nM
7  COc1cc(C(=O)O)c(F)cc1NS(=O)(=O)c1csc(C#Cc2ccc(O)cc2)n1          IC50           < 100 nM
8  COc1cc(C(=O)O)ccc1NS(=O)(=O)c1csc(-c2ccccc2O)n1          IC50     500 to 1000 nM
9  COc1cc(C(=O)O)ccc1NS(=O)(=O)c1csc(C2=CCC(c3ccccc3)CC2)n1 (stereo not drawn)          IC50           < 100 nM

Item COc1ccc(CC2CCCN(c3nc(S(=O)(=O)Nc4ccc(C(=O)O)cc4OC)cs3)C2)cc1 (stereo not drawn) has what recorded IC50? 1000 to 100000 nM

Item CCC[C@H]1CC[C@H](C2CC=C(c3nc(S(=O)(=O)Nc4ccc(C(=O)O)cc4OC)cs3)CC2)CC1 (stereo partly drawn) [Example 373] has what recorded IC50? 100 to 500 nM

Item COc1cc(C(=O)O)c(F)cc1NS(=O)(=O)c1csc(-c2ccc(C3=CCC(C)(C)CC3)cc2C)n1 has what recorded IC50? < 100 nM

Item COc1cc(C(=O)O)c(F)cc1NS(=O)(=O)c1ccc2sc(-c3ccc(C4CCC(C)(C)CC4)cc3C(F)(F)F)nc2c1 has what recorded IC50? 100 to 500 nM

Item COc1cc(P(=O)(O)O)ccc1NS(=O)(=O)c1csc(-c2ccc(C3CCCCC3)cc2)n1 has what recorded IC50? 1000 to 100000 nM

Item COc1cc(C(=O)O)c(F)cc1NS(=O)(=O)c1csc(-c2ccc(C3CCC(C)(C)CC3)cc2)n1 has what recorded IC50? < 100 nM

Every entry's value here was drawn from patent US12384753B2.
